// reported zone of inhibition at 100 µg/disc per item
# Tested on: Pseudomonas aeruginosa
# RUN DESCRIPTION: Antimicrobial activity against Pseudomonas aeruginosa assessed as zone of inhibition at 100 ug/well after 24 hrs by agar well diffusion method
# Format: functional
# CONDITION DESCRIPTION: read-out: DIZ
The reply should contain only the number, in mm.

Worked set:
# return recorded zone of inhibition at 100 µg/disc for input O=C(NS(=O)(=O)c1c(-c2ccccc2)nn(-c2ccccc2)c1-c1ccc([N+](=O)[O-])cc1)c1ccc(Cl)s1 26

Using known records, supply zone of inhibition at 100 µg/disc for O=C(NS(=O)(=O)c1c(-c2ccccc2)noc1-c1ccc([N+](=O)[O-])cc1)c1cccs1 26

Please report zone of inhibition at 100 µg/disc for the following molecule: O=C(NS(=O)(=O)c1c(-c2ccccc2)nn(-c2ccccc2)c1-c1ccccc1)c1cccs1 12

Dear colleague, please send me the reported zone of inhibition at 100 µg/disc for Cc1ccc(-c2onc(-c3ccccc3)c2S(=O)(=O)NC(=O)c2cccs2)cc1 when you can. 12

For the molecule Cc1ccc(-c2c(S(=O)(=O)NC(=O)c3ccc(Cl)s3)c(-c3ccccc3)nn2-c2ccccc2)cc1 , report zone of inhibition at 100 µg/disc. 13

Quote zone of inhibition at 100 µg/disc reported for O=C(NS(=O)(=O)/C=C/c1ccc([N+](=O)[O-])cc1)c1ccc(Cl)s1 please. 24

# return recorded zone of inhibition at 100 µg/disc for input O=C(NS(=O)(=O)/C=C/c1ccccc1)c1cccs1 10

Using known records, supply zone of inhibition at 100 µg/disc for O=C(NS(=O)(=O)/C=C/c1ccccc1)c1ccc(Cl)s1 17

Then this molecule:
Tell me its zone of inhibition at 100 µg/disc given O=C(NS(=O)(=O)c1c(-c2ccccc2)noc1-c1ccccc1)c1cccs1 as the entry. 15
